Data provenance: PubChem BioAssay

Entries annotated with measured inhibition
target: Potassium voltage-gated channel subfamily KQT member 1 (Homo sapiens); assay: KCNQ1 potassium channel inhibitors, confirmation, cell-based, Tl flux, duplicate (AID 588353); details: KCNQ1 cell line, FluxOR thallium flux fluorescence, at 10 µM, stronger effect = higher value;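 note: 0% = buffer control ratio and 100% = XE991 inhibitor control ratio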
This is one part of the list.
Please state the figure in %; there is no need to write the unit.

Examples with their reported inhibition follow.
[[record]]
compound = "Cc1ccc(S(=O)(=O)Nc2ccc3ncccc3c2)cc1"
endpoint_label = "inhibition"
val = 76.5

[[record]]
compound = "CCOC(=O)c1c(NC(=O)C(C)Sc2c[nH]c3ccccc23)sc2c1CCC2 (stereo unspecified)"
endpoint_label = "inhibition"
val = 124

[[record]]
compound = "Cc1ccccc1OCC(=O)Nc1ccc(N2CCN(C(=O)C(C)C)CC2)c(Cl)c1"
endpoint_label = "inhibition"
val = 57.5


Data request: Let me know recorded inhibition for O=C(NCCc1ccccc1)c1ccc2c(c1)N(Cc1ccccc1)CCS2 , thanks.
Data returned: 71.5

Data request: Consider the compound CCn1c(C)c(C)c2cc(C(=O)N3CCN(c4cccc(C)c4C)CC3)ccc21 . State its measured inhibition.
Data returned: 106
